The reported measurements were obtained from the supplement of paper PMC7125110.

B1: glmS ribozyme (parent)
chain: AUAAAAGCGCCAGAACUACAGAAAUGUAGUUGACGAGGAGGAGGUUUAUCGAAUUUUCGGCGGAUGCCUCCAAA

Variants of: B1
Assay: KM; higher = weaker cofactor use; RNA array
Details: with glucosamine-6-phosphate
# Lookup of reported KM keyed by entry
// return numeric value only (unit: µM, not printed)

Example entries and their recorded answers appear below.
KM recorded for this variant, A12U U47A , is 1490

The recorded KM for entry U31G G66C equals 1360

Recorded result, A42U U56A , KM: 3230

# KM of U30C U69C = 591

Okay, now this variant:
Just so you know, measured KM for A15C A53G came out at 3060
